Measured values drawn from PubChem BioAssay AID1996 for this set.

Measured solubility kinetic, listed per entry.
- protocol.conditions: buffer; pH 7.4; 200.0 µM

>>> df
               structure_as_smiles   meas_value
0  Cc1ccccc1CC(=O)Nc1ccc2c(c1)CCC2  < 0.6 µg/mL

Short answer for "Cc1ccc2nc(SCC(=O)NCc3cccs3)[nH]c2c1" : solubility kinetic was > 47.6 µg/mL

Measured solubility kinetic, "Cn1c(N)c(N2CCCCC2)c(=O)n(CC(=O)Nc2cccc(C#N)c2)c1=O" : > 57.4 µg/mL

###

- protocol.conditions: buffer; pH 7.4; 200.0 µM
measured.metric: solubility kinetic (µg/mL)
Please reply with the bare figure in µg/mL and do not write the unit itself.

Item: "O=C(COC(=O)c1nc(Cl)ccc1Cl)c1ccc[nH]1" | solubility kinetic: 31.3

The recorded solubility kinetic for entry "COc1ccc(NC(=O)C23CC4CC(CC(Cl)(C4)C2)C3)cc1S(=O)(=O)N1CCOCC1" equals 3.3

For reference, reported solubility kinetic for "COc1ccc2[nH]c(C(=O)NCCN3CCCCC3)cc2c1" stands at 39.7

###

- protocol.conditions: buffer; pH 7.4; 200.0 µM
measured.metric: solubility kinetic

>>> print(df.to_string())
                                   compound     measured_metric    meas_value
0  Cc1ccc(Nc2nnc(SCC(=O)NCC3CCCO3)s2)cc1C (centres undefined)  solubility kinetic  > 56.8 µg/mL
1  CC1CCCN(CCC(=O)Nc2ccc(F)c(F)c2)C1 (centres undefined)  solubility kinetic  > 42.3 µg/mL

// sample O=C(O)C1C2C=CC(C2)C1C(=O)Nc1ccccc1Br (centres undefined) , its solubility kinetic was > 50.4 µg/mL

For reference, reported solubility kinetic for "O=C(Nc1ccc2c(c1)OCCO2)c1ccc(Cl)c(Cl)c1" stands at < 0.7 µg/mL

Sample CC1CCCCN1C(=O)CSc1nc(-c2ccccc2)cn1N (centres undefined) ; solubility kinetic observed: > 49.6 µg/mL

solubility kinetic in this record for "S=C(c1ccc(Br)cc1)N1CCCC1" : > 40.5 µg/mL

// "Cc1ccccc1OCCCCn1c(CO)nc2ccccc21" : solubility kinetic value = 29.2 µg/mL

GET /value?item= CCS(=O)(=O)c1ccccc1C(=O)NC1CCCc2ccccc21 (centres undefined) &field=solubility kinetic returns 42.6 µg/mL

Entry CCC(=O)NC(c1ccccc1)c1c(O)ccc2ccccc12 (centres undefined) , solubility kinetic reported as 0.9 µg/mL

# compound O=C(O)C(=O)O.O=S(=O)(c1cccc(C(F)(F)F)c1)N1CCN(CC(O)COCc2ccccc2)CC1 (centres undefined) ; its solubility kinetic = > 82.3 µg/mL

###

- protocol.conditions: buffer; pH 7.4; 200.0 µM
measured.metric: solubility kinetic

                                   molecule    meas_value
0  Cc1cc(Cl)ccc1NC(=O)CCN1C(=O)NC(C)(C)C1=O  > 48.6 µg/mL

The value of solubility kinetic measured for the molecule "CN(CC(=O)Nc1ccc(Cl)cc1F)C1=NS(=O)(=O)c2ccccc21" turned out to be 7.8 µg/mL

Field solubility kinetic (entry "Cc1ccccc1C(=O)Nc1cccc(NC(=O)c2ccccc2[N+](=O)[O-])c1" ) reads 1.2 µg/mL

###

- protocol.conditions: buffer; pH 7.4; 200.0 µM
The compounds listed here are annotated with their solubility kinetic.

In [3]: df
Out[3]:
                               compound     measured_metric      meas_value
0  COCCNC(=O)Cn1nc(C)c([N+](=O)[O-])c1C  solubility kinetic  > 0.0384 mg/mL

Field solubility kinetic (entry "COC(CNC(=O)CN1CCN(Cc2ccccc2F)C1=O)OC" ) reads > 0.0509 mg/mL

Item: "Cc1ccc(C(=O)N2CCN(C34CC5CC(CC(C5)C3)C4)CC2)o1" | solubility kinetic: > 0.0493 mg/mL

Lab note: "O=C(NC(c1ccccc1)c1ccccc1)N1CCOCC1" gave solubility kinetic of > 0.0445 mg/mL

# solubility kinetic (compound: COc1ccc2c(c1)CCCC21NC(=O)N(CC(=O)N2CC(C)OC(C)C2)C1=O (stereo not given) ) is > 0.0602 mg/mL

###

- protocol.conditions: buffer; pH 7.4; 200.0 µM
# solubility kinetic annotations

In [3]: df
Out[3]:
                                   compound     measured_metric    meas_value
0             CC(=O)N1CC(=O)N(c2ccccc2)C1=O  solubility kinetic  > 32.7 µg/mL
1        CC(=O)c1cccc(NS(=O)(=O)N2CCOCC2)c1  solubility kinetic  > 42.6 µg/mL
2           Cl.Nc1cnccc1Oc1cccc(C(F)(F)F)c1  solubility kinetic  > 43.6 µg/mL
3     Cc1ccccc1Nc1nc(N)nc(COC(=O)c2ccco2)n1  solubility kinetic  > 48.8 µg/mL
4  COc1ccc(S(=O)(=O)N2CC(C)N(C(=O)N3CCOCC3)C2)cc1 (stereo unspecified)  solubility kinetic  > 55.4 µg/mL
5         O=C(NCN1CCN(c2ccccc2)CC1)c1cnccn1  solubility kinetic  > 44.6 µg/mL

Given item "CC(=O)C1=C(C)N2CCN=C2S1" , the value recorded as its solubility kinetic is > 27.3 µg/mL

solubility kinetic reading for CCc1ccccc1NC(=O)CCN1C(=O)C2CC=CCC2C1=O (stereo unspecified) : > 49 µg/mL

###

- protocol.conditions: buffer; pH 7.4; 200.0 µM
# maps each entry to its solubility kinetic

Illustrative cases are given below, each with its answer.
>>> print(df.to_string())
                                   molecule     measured_metric    meas_value
0  CC(NC(=O)CCl)c1ccccc1Br (stereo unspecified)  solubility kinetic  > 41.5 µg/mL
1    COc1cc(F)ccc1S(=O)(=O)n1c(C)nc2ccccc21  solubility kinetic  > 48.1 µg/mL
2  COc1ccccc1C(C)NCC(=O)NCc1ccc(C)cc1 (stereo unspecified)  solubility kinetic  > 46.9 µg/mL

get_value(item= "S=C(NCCCN1CCOCC1)Nc1cccc(Cl)c1" , readout=solubility kinetic) returns > 47.1 µg/mL

Value of measured solubility kinetic for the entry "O=C(CCCOc1ccccc1)NCCc1nc2ccccc2[nH]1" : > 48.5 µg/mL

According to the records, this molecule "COC(=O)c1c(NC(=O)c2ccoc2C)sc(C)c1C" displays solubility kinetic of < 0.6 µg/mL

###

- protocol.conditions: buffer; pH 7.4; 200.0 µM
# solubility kinetic listing for each entry below
Field format: number, assumed µg/mL, no unit text.

Study these solved cases before continuing.
>>> df
                        structure_as_smiles     measured_metric  meas_value
0  Cc1c(Cl)cn2c(=O)cc(CN3CCN(c4ccc(F)cc4)CC3)nc2c1Cl  solubility kinetic           5
1     Cc1ccc(C(=O)OCC(=O)Nc2ccccc2Cl)c(O)c1  solubility kinetic         0.8

Entry under test: "COCCNc1nc(C)c(C(C)=O)s1" . Its solubility kinetic was 25.7

###

- protocol.conditions: buffer; pH 7.4; 200.0 µM
measured.metric: solubility kinetic (µg/mL)
Reply numerically in µg/mL, unit not repeated.

>>> print(df.to_string())
                              molecule     measured_metric  meas_value
0  O=C(/C=C/c1ccc(F)cc1)N1CCCc2ccccc21  solubility kinetic        18.5

Lab note: Fc1ccc(N2CCN(C3CCC(c4ccccc4)CC3)CC2)cc1 (stereo unspecified) gave solubility kinetic of 1.1

Entry CC(C)(C)C1CCCCC1NC(=O)c1ccncc1 (stereo unspecified) — recorded solubility kinetic = 4.1

###

- protocol.conditions: buffer; pH 7.4; 200.0 µM
measured.metric: solubility kinetic

# annotated cases, reported solubility kinetic shown
In [3]: df
Out[3]:
                                   compound     measured_metric    meas_value
0  COc1ccc(NC(=O)c2cc(S(=O)(=O)N3CCOCC3)ccc2C)cc1S(=O)(=O)N1CCOCC1  solubility kinetic  > 80.9 µg/mL
1      Cn1c(/C=C/c2ccc(Cl)cc2)nc2ccccc2c1=O  solubility kinetic   < 0.3 µg/mL
2             Nc1nc(Cl)nc2ncn(Cc3ccccc3)c12  solubility kinetic    > 39 µg/mL
3                COc1ccc(-c2cn3ccccc3n2)cc1  solubility kinetic  > 33.6 µg/mL
4  Cc1cc(OC(=O)c2ccccc2F)c([N+](=O)[O-])c(=O)[nH]1  solubility kinetic  > 43.8 µg/mL
5     CCOC(=O)c1cc2c(=O)[nH]ccc2nc1C(F)(F)F  solubility kinetic  > 42.9 µg/mL

solubility kinetic recorded for this compound, "CN1CCN(c2ccccc2NC(=O)c2ccccc2F)CC1" , is > 47 µg/mL

Reported solubility kinetic of "Cc1ccc2c(C(=O)CN3CCC(C(N)=O)CC3)c(C)[nH]c2c1" : > 47 µg/mL

Entry CCN(CC)CCOC(=O)C(c1ccccc1)C1CCCCC1.Cl (stereo unspecified) — recorded solubility kinetic = > 53.1 µg/mL

Lab book: solubility kinetic of "COc1ccc(S(=O)(=O)NCCCN2CCOCC2)cc1F" noted as > 49.9 µg/mL

For record "COc1cccc(C(=O)NCCCn2ccnc2)c1" the listed solubility kinetic is > 38.9 µg/mL
